B1: scFv; the commonest letter at each place (parent)
chain 1: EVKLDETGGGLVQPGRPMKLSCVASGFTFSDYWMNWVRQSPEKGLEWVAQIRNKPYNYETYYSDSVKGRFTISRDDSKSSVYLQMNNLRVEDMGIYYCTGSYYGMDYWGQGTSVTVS
chain 2: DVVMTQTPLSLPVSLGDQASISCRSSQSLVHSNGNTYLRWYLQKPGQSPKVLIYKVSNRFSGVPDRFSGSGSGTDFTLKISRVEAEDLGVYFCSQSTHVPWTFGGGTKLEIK

Variants of: B1
assayComment: Kd (Tite-Seq)
testConditions: with fluorescein; format: scFv 4-4-20, heavy + light
Kd overview
experimentalReadout: Kd

>>> endpointvalue("chain 1 N35P W36V")
"7.33 µM"
>>> endpointvalue("chain 1 T28I D31A")
"0.00309 µM"
>>> endpointvalue("chain 1 S101D G104H D106A")
"≥ 10 µM"
>>> endpointvalue("chain 1 V37G")
"0.071 µM"
>>> endpointvalue("chain 1 D31A W33I")
"≥ 10 µM"
>>> endpointvalue("chain 1 Y103L G104Y")
"≥ 10 µM"
>>> endpointvalue("chain 1 F29N V37G")
"≥ 10 µM"
>>> endpointvalue("chain 1 F29C")
"0.195 µM"
>>> endpointvalue("chain 1 D31W W33L N35I")
"≥ 10 µM"
>>> endpointvalue("chain 1 S30D W36V")
"≥ 10 µM"
>>> endpointvalue("chain 1 Y107G")
"≥ 10 µM"
>>> endpointvalue("chain 1 Y32G M34N")
"≥ 10 µM"
>>> endpointvalue("unchanged")
"0.00135 µM"
>>> endpointvalue("chain 1 G104P Y107M G109M")
"≥ 10 µM"
>>> endpointvalue("chain 1 S101F W108K")
"≥ 10 µM"
>>> endpointvalue("chain 1 M34C V37F")
"≥ 10 µM"
>>> endpointvalue("chain 1 W33H M34V V37L")
"≥ 10 µM"
>>> endpointvalue("chain 1 S30W")
"0.00215 µM"
>>> endpointvalue("chain 1 S101Y G104T")
"≥ 10 µM"
>>> endpointvalue("chain 1 F29M D31T")
"0.00746 µM"
>>> endpointvalue("chain 1 M105N D106P")
"≥ 10 µM"
>>> endpointvalue("chain 1 T28M D31I W33Y")
"≥ 10 µM"
>>> endpointvalue("chain 1 G104T W108A")
"≥ 10 µM"
>>> endpointvalue("chain 1 W108N G109N")
"≥ 10 µM"
>>> endpointvalue("chain 1 G100M G109W")
"≥ 10 µM"
>>> endpointvalue("chain 1 F29N S30D")
"≥ 10 µM"
>>> endpointvalue("chain 1 W33I N35Y V37C")
"≥ 10 µM"
>>> endpointvalue("chain 1 Y32I W33T N35A")
"≥ 10 µM"
>>> endpointvalue("chain 1 Y103C G109A")
"≥ 10 µM"
>>> endpointvalue("chain 1 D31Y W33H")
"≥ 10 µM"
>>> endpointvalue("chain 1 S101I W108E")
"≥ 10 µM"
>>> endpointvalue("chain 1 S30M M34L")
"0.00299 µM"
>>> endpointvalue("chain 1 D106E W108I")
"0.228 µM"
>>> endpointvalue("chain 1 S101H Y107R W108C")
"≥ 10 µM"
>>> endpointvalue("chain 1 F29E")
"≥ 10 µM"
>>> endpointvalue("chain 1 M34A N35I")
"≥ 10 µM"
>>> endpointvalue("chain 1 Y103L D106H G109F")
"≥ 10 µM"
>>> endpointvalue("chain 1 M34R N35M")
"≥ 10 µM"
>>> endpointvalue("chain 1 M105I Y107S")
"≥ 10 µM"
>>> endpointvalue("chain 1 F29V Y32S")
"8.13 µM"
>>> endpointvalue("chain 1 D106A")
"2.96 µM"
>>> endpointvalue("chain 1 T28K W36R")
"0.0507 µM"
>>> endpointvalue("chain 1 Y102P")
"≥ 10 µM"
>>> endpointvalue("chain 1 S30E W33K")
"≥ 10 µM"
>>> endpointvalue("chain 1 S101T W108C")
"≥ 10 µM"
>>> endpointvalue("chain 1 D31V")
"≥ 10 µM"
>>> endpointvalue("chain 1 V37Q")
"0.00194 µM"
>>> endpointvalue("chain 1 G100Q G104E")
"≥ 10 µM"
>>> endpointvalue("chain 1 D106H Y107A")
"≥ 10 µM"
>>> endpointvalue("chain 1 T28N F29R")
"≥ 10 µM"
>>> endpointvalue("chain 1 M105C W108M")
"0.000389 µM"
>>> endpointvalue("chain 1 S30F M34Y")
"0.00871 µM"
>>> endpointvalue("chain 1 S30H V37F")
"0.0562 µM"
>>> endpointvalue("chain 1 Y102W Y107G")
"≥ 10 µM"
>>> endpointvalue("chain 1 M105E D106C")
"≥ 10 µM"
>>> endpointvalue("chain 1 M105Q G109Y")
"≥ 10 µM"
>>> endpointvalue("chain 1 D31Q")
"0.00258 µM"
>>> endpointvalue("chain 1 Y32F W33Q")
"≥ 10 µM"
>>> endpointvalue("chain 1 T28Q N35R")
"≥ 10 µM"
>>> endpointvalue("chain 1 G104V M105E")
"≥ 10 µM"
>>> endpointvalue("chain 1 G104L M105L")
"≥ 10 µM"
>>> endpointvalue("chain 1 Y103L G109I")
"≥ 10 µM"
>>> endpointvalue("chain 1 S101C Y107T")
"≥ 10 µM"
>>> endpointvalue("chain 1 S30W Y32G")
"1.55 µM"
>>> endpointvalue("chain 1 Y103N G109P")
"≥ 10 µM"
>>> endpointvalue("chain 1 W33Q W36T")
"≥ 10 µM"
>>> endpointvalue("chain 1 M105D D106G")
"≥ 10 µM"
>>> endpointvalue("chain 1 Y103I")
"0.018 µM"
>>> endpointvalue("chain 1 F29D S30K")
"≥ 10 µM"
>>> endpointvalue("chain 1 D31T V37S")
"≥ 10 µM"
>>> endpointvalue("chain 1 F29L D31L")
"≥ 10 µM"
>>> endpointvalue("chain 1 Y103W M105T")
"≥ 10 µM"
>>> endpointvalue("chain 1 G104E G109Y")
"≥ 10 µM"
>>> endpointvalue("chain 1 G100W D106F")
"≥ 10 µM"
>>> endpointvalue("chain 1 T28I")
"0.000504 µM"
>>> endpointvalue("chain 1 M105S")
"≥ 10 µM"
>>> endpointvalue("chain 1 M105T Y107C")
"≥ 10 µM"
>>> endpointvalue("chain 1 W33E V37C")
"≥ 10 µM"
>>> endpointvalue("chain 1 D31N W36I")
"0.0287 µM"
>>> endpointvalue("chain 1 D106I W108N")
"≥ 10 µM"
>>> endpointvalue("chain 1 T28A N35C")
"≥ 10 µM"
>>> endpointvalue("chain 1 S30A")
"0.000803 µM"
>>> endpointvalue("chain 1 G100N S101C")
"≥ 10 µM"
>>> endpointvalue("chain 1 M105Q G109W")
"≥ 10 µM"
>>> endpointvalue("chain 1 D31C M34E")
"0.579 µM"
>>> endpointvalue("chain 1 S101W D106S")
"≥ 10 µM"
>>> endpointvalue("chain 1 M34S")
"0.151 µM"
>>> endpointvalue("chain 1 Y107T W108A")
"0.00215 µM"
>>> endpointvalue("chain 1 T28S Y32S")
"0.266 µM"
>>> endpointvalue("chain 1 S101M W108G")
"≥ 10 µM"
>>> endpointvalue("chain 1 W108N G109P")
"≥ 10 µM"

Hello, the source for this data is the FLAb antibody collection (doi:10.7554/elife.23156), in case you need it.
